Cited source for all entries: PubChem BioAssay (NCI)

system: NCI-H522 lung; experiment: NCI tumour cell line growth inhibition, 48 h; in the data active means GI50 below about 0.43 µM; inactive means the rest
Log the outcome using a class from active, inactive

Solved entries (count: 10):
MOLECULE: Oc1c(I)cc(I)cc1CN(Cc1ccccn1)Cc1ccccn1
ASSIGNED_CATEGORY: inactive
--
MOLECULE: Nc1c2ccccc2nc2ccccc12 (tested in a mixture with another compound)
ASSIGNED_CATEGORY: inactive
--
MOLECULE: Clc1ccc2c(NCCNc3nc(N4CCCC4)nc4ccccc34)ccnc2c1
ASSIGNED_CATEGORY: inactive
--
MOLECULE: CC#CC(=O)N1CC[C@@H](n2c(=O)n(-c3ccc(Oc4ccccc4)cc3)c3c(N)ncnc32)C1
ASSIGNED_CATEGORY: inactive
--
MOLECULE: COc1cc(N2CCC(N3CCN(C)CC3)CC2)ccc1Nc1ncc(Cl)c(Nc2ccccc2S(=O)(=O)C(C)C)n1
ASSIGNED_CATEGORY: inactive
--
MOLECULE: Nc1nc(-c2ccc(Cl)cc2)cc(-c2ccccc2)c1-c1nc2ccccc2o1
ASSIGNED_CATEGORY: inactive
--
MOLECULE: O=C(O)c1ccccc1Nc1ccc2nnc(-c3ccncc3)n2n1
ASSIGNED_CATEGORY: inactive
--
MOLECULE: COC(C)(C)[C@H](O)C(O)CC(C)[C@@H]1CCC23CC12CCC1[C@@]2(C)CCC(OC(C)=O)C(C)(C)C2CC(OC2OC(COC(C)=O)C(O)C(O)C2O)[C@]13C (stereo partly specified)
ASSIGNED_CATEGORY: inactive
--
MOLECULE: Cc1c(-c2nnc(-c3cc(Cl)c(Cl)cc3Cl)o2)nnn1-c1ccnc2c(C(F)(F)F)cccc12
ASSIGNED_CATEGORY: inactive
--
MOLECULE: COc1cc(/C=C2\C[C@H]3[C@@H]4CC=C5C[C@@H](OC(C)=O)CC[C@]5(C)[C@H]4CC[C@]3(C)[C@H]2OC(C)=O)ccc1OCCN1CCCCC1
ASSIGNED_CATEGORY: inactive

From here, focus on the item given below.
Status in this test for CCN1CCN(c2ccc(Nc3ncc4ccc5ncn(C(C)C)c5c4n3)nc2)CC1 ? active
